This collection of values is drawn from patent US20100068204A1.

# Test Target: human TOR (FLAG-TOR) (Homo sapiens)
# Method Summary: mTOR enzyme assay (DELFIA format, purified enzyme)
# Conditions: 800 ng/ml FLAG-TOR, 100 μM ATP, 1.25 μM His6-S6K; read-out: mTOR Kinase IC50
Reported Metric: IC50 (nM)

Consider the following illustrative entries.
[
  {
    "Smiles Str": "COc1cnc(OC)c(CNc2cccc(Oc3cc(=O)[nH]c4ccccc34)c2)c1",
    "Units Of Measure": "nM",
    "IC50": 510
  },
  {
    "Smiles Str": "Cc1ccc(Oc2cc(=O)[nH]c3ccccc23)cc1",
    "Units Of Measure": "nM",
    "IC50": 1150
  },
  {
    "Smiles Str": "CN1CCN(c2cc(-c3cccc(Oc4cc(=O)[nH]c5ccccc45)c3)ccn2)CC1",
    "Units Of Measure": "nM",
    "IC50": 400
  },
  {
    "Smiles Str": "Cn1cc(-c2ccc(Oc3cc(=O)[nH]c4ccccc34)cc2)cn1",
    "Units Of Measure": "nM",
    "IC50": 1980
  },
  {
    "Smiles Str": "O=c1cc(Oc2cccc(NCc3cccnc3)c2)c2ccccc2[nH]1",
    "Units Of Measure": "nM",
    "IC50": 80
  }
]

P = CS(=O)(=O)Nc1cccc(-c2cccc(Oc3cc(=O)[nH]c4ccccc34)c2)c1
Q = COCCNC(=O)Nc1ccc(-c2cccc(Oc3cc(=O)[nH]c4ccccc34)c2)cc1
Inquiry: Please compare: P and Q . Report which one has the smaller IC50 value. Lab log: write the label of the selected item as the result.
Reply text: Q

1 = O=c1cc(Oc2cccc(NCc3ccccc3N3CCOCC3)c2)c2ccccc2[nH]1
2 = O=c1cc(Oc2ccc(Cl)cc2)c2ccccc2[nH]1
Inquiry: Pick one: 1 or 2 . Which has the bigger IC50 number? Lab log: write the label of the selected item as the result.
Reply text: 2

====

# Test system: MDA468 breast tumor cells
# Method Summary: In vitro cell growth assay (MTS), MDA468
# Type: cell-based, human
# Conditions: three days after drug treatment
Reported Metric: IC50 (µM)

Consider the following illustrative entries.
[
  {
    "Compound": "O=c1cc(Oc2cccc(NCc3ccc(F)nc3)c2)c2ccccc2[nH]1 [drawing 218]",
    "Units Of Measure": "µM",
    "IC50": 50
  },
  {
    "Compound": "O=c1cc(Oc2cccc(NCc3ccc(F)nc3)c2)c2ccccc2[nH]1 [drawing 208]",
    "Units Of Measure": "µM",
    "IC50": 11
  }
]

1 = O=c1cc(Oc2cccc(NCc3cccnc3Cl)c2)c2ccccc2[nH]1 [drawing 217]
2 = Cc1cccc(Oc2cc(=O)[nH]c3ccccc23)c1 [drawing 249]
Inquiry: Pick one: 1 or 2 . Which has the bigger IC50 number? Lab log: write the label of the selected item as the result.
Reply text: 2
(2: 20 µM, 1: 10 µM)

====

# Test Target: human TOR (FLAG-TOR) (Homo sapiens, UniProt P42345)
# Method Summary: mTOR enzyme assay (DELFIA format, purified enzyme)
# Conditions: 800 ng/ml FLAG-TOR, 100 μM ATP, 1.25 μM His6-S6K; read-out: mTOR Kinase IC50
Reported Metric: IC50 (nM)

Consider the following illustrative entries.
[
  {
    "Molecule": "O=c1cc(Oc2cccc(-c3ccc(NCc4cccnc4)cc3)c2)c2ccccc2[nH]1",
    "Test Target": "human TOR (FLAG-TOR) (Homo sapiens, UniProt P42345)",
    "Units Of Measure": "nM",
    "IC50": 1300
  },
  {
    "Molecule": "O=c1cc(Oc2cccc(NCc3cnc4ccccc4c3)c2)c2ccccc2[nH]1",
    "Test Target": "human TOR (FLAG-TOR) (Homo sapiens, UniProt P42345)",
    "Units Of Measure": "nM",
    "IC50": 60
  },
  {
    "Molecule": "O=c1cc(Oc2ccc(-c3cccnc3)cc2)c2ccccc2[nH]1",
    "Test Target": "human TOR (FLAG-TOR) (Homo sapiens, UniProt P42345)",
    "Units Of Measure": "nM",
    "IC50": 1750
  },
  {
    "Molecule": "O=c1cc(Oc2cccc(C(F)(F)F)c2)c2ccccc2[nH]1",
    "Test Target": "human TOR (FLAG-TOR) (Homo sapiens, UniProt P42345)",
    "Units Of Measure": "nM",
    "IC50": 1350
  }
]

1 = O=c1cc(Oc2cccc(N3CCOCC3)c2)c2ccccc2[nH]1
2 = O=c1cc(Oc2cccc(Br)c2)c2ccccc2[nH]1
Inquiry: Please compare: 1 and 2 . Report which one has the smaller IC50 value. Lab log: write the label of the selected item as the result.
Reply text: 2
(2: 110 nM, 1: 430 nM)

A = Nc1nc(Cl)c(CNc2cccc(Oc3cc(=O)[nH]c4ccccc34)c2)c(Cl)n1
B = CC(C)(C)OC(=O)N1CCN(c2ccc(-c3cccc(Oc4cc(=O)[nH]c5ccccc45)c3)cn2)CC1
Inquiry: Pick one: A or B . Which has the bigger IC50 number? Lab log: write the label of the selected item as the result.
Reply text: B

P = O=c1cc(Oc2cccc(OCCO)c2)c2ccccc2[nH]1
Q = O=c1cc(Oc2cccc(-c3ccc(N4CCNCC4)nc3)c2)c2ccccc2[nH]1
R = Cc1ccccc1Oc1cc(=O)[nH]c2ccccc12
Inquiry: Order by IC50, ascending. Put the labels in the requested order and write them down.
Reply text: Q, P, R
(Q: 150 nM, P: 340 nM, R: 2000 nM)

A = Cn1ccc2cc(CNc3cccc(Oc4cc(=O)[nH]c5ccccc45)c3)ccc21
B = CC(=O)Nc1ccc(-c2cccc(Oc3cc(=O)[nH]c4ccccc34)c2)cc1
C = COc1ccccc1Oc1cc(=O)[nH]c2ccccc12
D = COc1ccc(Oc2cc(=O)[nH]c3ccccc23)cc1
Inquiry: Arrange by IC50, high to low. Put the labels in the requested order and write them down.
Reply text: C, D, A, B

====

# Test Target: human TOR (FLAG-TOR) (Homo sapiens, UniProt P42345)
# Method Summary: mTOR enzyme assay (DELFIA format, purified enzyme)
# Conditions: 800 ng/ml FLAG-TOR, 100 μM ATP, 1.25 μM His6-S6K; read-out: mTOR Kinase IC50
pIC50: −log10 of the molar value.
Reported Metric: pIC50

Consider the following illustrative entries.
[
  {
    "Smiles Str": "CN1CCC(N(C)c2cccc(-c3cccc(Oc4cc(=O)[nH]c5ccccc45)c3)c2)CC1",
    "Test Target": "human TOR (FLAG-TOR) (Homo sapiens, UniProt P42345)",
    "pIC50": 6.48
  },
  {
    "Smiles Str": "O=c1cc(Oc2cccc(NCc3ccccn3)c2)c2ccccc2[nH]1",
    "Test Target": "human TOR (FLAG-TOR) (Homo sapiens, UniProt P42345)",
    "pIC50": 6.82
  },
  {
    "Smiles Str": "COC[C@@H]1CCCN1CCNc1ccc(-c2cccc(Oc3cc(=O)[nH]c4ccccc34)c2)cc1",
    "Test Target": "human TOR (FLAG-TOR) (Homo sapiens, UniProt P42345)",
    "pIC50": 6.89
  },
  {
    "Smiles Str": "O=c1cc(Oc2ccc(-c3ccncc3)cc2)c2ccccc2[nH]1",
    "Test Target": "human TOR (FLAG-TOR) (Homo sapiens, UniProt P42345)",
    "pIC50": 6.62
  },
  {
    "Smiles Str": "O=c1cc(Oc2ccccc2)c2cc(-c3cn[nH]c3)ccc2[nH]1",
    "Test Target": "human TOR (FLAG-TOR) (Homo sapiens, UniProt P42345)",
    "pIC50": 4.72
  },
  {
    "Smiles Str": "NCc1ccc(Oc2cc(=O)[nH]c3ccccc23)cc1",
    "Test Target": "human TOR (FLAG-TOR) (Homo sapiens, UniProt P42345)",
    "pIC50": 5.40
  },
  {
    "Smiles Str": "O=c1cc(Oc2cccc(NCCc3cccnc3)c2)c2ccccc2[nH]1",
    "Test Target": "human TOR (FLAG-TOR) (Homo sapiens, UniProt P42345)",
    "pIC50": 6.92
  },
  {
    "Smiles Str": "Nc1ccc(Oc2cc(=O)[nH]c3ccccc23)cc1",
    "Test Target": "human TOR (FLAG-TOR) (Homo sapiens, UniProt P42345)",
    "pIC50": 6.80
  }
]

P = CC(C)(C)CNc1ccc(CNc2cccc(Oc3cc(=O)[nH]c4ccccc34)c2)cn1
Q = O=c1cc(Oc2ccc(-c3ccc(F)cc3)cc2)c2ccccc2[nH]1
Inquiry: Please compare: P and Q . Report which one has the smaller pIC50 value. Lab log: write the label of the selected item as the result.
Reply text: Q
(Q: 4.80, P: 6.46)

a = O=c1cc(Oc2cccc(-c3cccnc3)c2)c2ccccc2[nH]1
b = CN(C)C/C=C/C(=O)Nc1cccc(-c2cccc(Oc3cc(=O)[nH]c4ccccc34)c2)c1
Inquiry: Please compare: a and b . Report which one has the smaller pIC50 value. Lab log: write the label of the selected item as the result.
Reply text: a
